Examples of binders with documented interaction score follow.
STUDY SYSTEM: T1, 4H584-bH
T1 chain: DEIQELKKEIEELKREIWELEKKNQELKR
PROCEDURE SUMMARY: two-hybrid library CCNG1;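 further: natural log of median RNA to DNA barcode read ratio; higher means stronger binding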

[
  {
    "BINDER": "DKNQELKKENEELKRKIWELKKEIQELER [4H3817-bH]",
    "interaction score": -0.723
  },
  {
    "BINDER": "DENQELKKENEELERKIWELKKKIQELKR [4H1710-bH]",
    "interaction score": 0.848
  },
  {
    "BINDER": "DENQELEKKIEELKRKNWELEKEIQELER [4H1393-bH]",
    "interaction score": -0.3
  },
  {
    "BINDER": "DENQELKKKNEELKREIWELEKEIQELER [4H1985-bH]",
    "interaction score": -1.1
  },
  {
    "BINDER": "DKNQELKKKNEELEREIWELEKKIQELKR [4H3974-bH]",
    "interaction score": -0.203
  },
  {
    "BINDER": "DENQELKKEIEELKRENWELKKKIQELER [4H1629-bH]",
    "interaction score": 0.366
  },
  {
    "BINDER": "DENQELEKKIEELKREIWELKKKNQELER [4H1359-bH]",
    "interaction score": 0.303
  }
]
